Origin of measurements: patent EP4692059A1

# Assay Info: Particle size, PdI and zeta potential of mRNA-encapsulating LNPs by dynamic light scattering (Experimental Example 2)
# Assay type: physicochemical
# Stated Conditions: mRNA-encapsulating LNP, cationic lipid:DOPC:Chol = 50:10:40 (molar ratio) + DMG-PEG2k about 1 mol; dynamic light scattering
Parameter Measured: particle size (nm)
Just the number in nm, nothing appended.

>>> value_observed("CCCCCC/C=C\\COC(=O)CCCC(=O)Oc1ccc(CC(=O)OCCC2CCN(CCSSCCN3CCC(CCOC(=O)Cc4ccc(OC(=O)CCCC(=O)OC/C=C\\CCCCCC)cc4)CC3)CC2)cc1 [compound 41]")
123.30
>>> value_observed("CCCCCC/C=C\\COC(=O)CCCC(=O)Oc1ccc(CC(=O)OCCC2CCN(CCSSCCN3CCC(CCOC(=O)Cc4ccc(OC(=O)CCCCCCC/C=C\\CCCCCCCC)cc4)CC3)CC2)cc1 [compound 43]")
90.46
>>> value_observed("CCCCCCC#CCCOC(=O)CCCC(=O)Oc1ccc(CC(=O)OCCC2CCN(CCSSCCN3CCC(CCOC(=O)Cc4ccc(OC(=O)CCCCCCC/C=C\\CCCCCCCC)cc4)CC3)CC2)cc1 [compound 149]")
97.44

Proceeding to the next molecule to report its particle size (nm).
Query: Requested field: particle size (nm). Item: CCCCCCCC/C=C\CCCCCCCC(=O)Oc1ccc(CC(=O)OCCC2CCN(CCSSCCN3CCC(CCOC(=O)Cc4ccc(OC(=O)CCCC(=O)OC[C@H](COC(=O)CCCCCCC)OC(=O)CCCCCCC)cc4)CC3)CC2)cc1 [compound 5]
Reply: 106.10

----------
# System: HeLa cells
# Assay Info: In vitro gene expression in HeLa cells (luciferase mRNA-encapsulating LNP, cumulative luminescence in 24 hr)
# Stated Conditions: LNP cationic lipid:DOPC:Chol:DMG-PEG2k = 50:10:40:1, mRNA 0.2 µg per dish, E+0a means 10^a
Parameter Measured: cumulative luciferase luminescence intensity (RLU) in 24 hr
Just the number in RLU, nothing appended.

Example compounds with recorded cumulative luciferase luminescence intensity (RLU) in 24 hr:
>>> value_observed("CCCCCCCC/C=C\\CCCCCCCC(=O)Oc1ccc(CC(=O)OCCC2CCN(CCSSCCN3CCC(CCOC(=O)Cc4ccc(OC(=O)CCCCCCC/C=C\\CCCCCCCC)cc4)CC3)CC2)cc1 [Comparative Example, reference compound]")
"1.85E+07"
>>> value_observed("CCCCCCCC/C=C\\CCCCCCCC(=O)Oc1ccc(CC(=O)OCCC2CCN(CCSSCCN3CCC(CCOC(=O)Cc4ccc(OC(=O)CCCC(=O)OC[C@H](COC(=O)CCCCCCC)OC(=O)CCCCCCC)cc4)CC3)CC2)cc1")
"4.16E+07"

Query: Requested field: cumulative luciferase luminescence intensity (RLU) in 24 hr. Item: "CCCCCC[C@@H](C/C=C\CCCCCCCC(=O)Oc1ccc(CC(=O)OCCC2CCN(CCSSCCN3CCC(CCOC(=O)Cc4ccc(OC(=O)CCCC(=O)OC[C@H](COC(C)=O)OC(C)=O)cc4)CC3)CC2)cc1)OC(=O)CCCCC"
Reply: 5.18E+07
